Tested system: human P2X2/3 receptor (Homo sapiens (Human), UniProt P56373+Q9UBL9)
Sequence (P56373 whole entry): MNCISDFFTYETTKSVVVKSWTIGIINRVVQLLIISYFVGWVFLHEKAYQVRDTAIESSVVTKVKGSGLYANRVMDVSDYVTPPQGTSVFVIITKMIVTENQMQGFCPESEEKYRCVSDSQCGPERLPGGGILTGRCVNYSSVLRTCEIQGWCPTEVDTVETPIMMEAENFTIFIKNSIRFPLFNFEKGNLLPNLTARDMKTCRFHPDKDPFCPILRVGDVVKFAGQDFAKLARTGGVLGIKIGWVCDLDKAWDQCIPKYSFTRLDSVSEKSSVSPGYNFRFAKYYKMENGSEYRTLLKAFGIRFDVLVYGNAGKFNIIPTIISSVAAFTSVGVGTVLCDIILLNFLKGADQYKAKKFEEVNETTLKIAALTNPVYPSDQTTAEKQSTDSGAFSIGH
Sequence (Q9UBL9 whole entry): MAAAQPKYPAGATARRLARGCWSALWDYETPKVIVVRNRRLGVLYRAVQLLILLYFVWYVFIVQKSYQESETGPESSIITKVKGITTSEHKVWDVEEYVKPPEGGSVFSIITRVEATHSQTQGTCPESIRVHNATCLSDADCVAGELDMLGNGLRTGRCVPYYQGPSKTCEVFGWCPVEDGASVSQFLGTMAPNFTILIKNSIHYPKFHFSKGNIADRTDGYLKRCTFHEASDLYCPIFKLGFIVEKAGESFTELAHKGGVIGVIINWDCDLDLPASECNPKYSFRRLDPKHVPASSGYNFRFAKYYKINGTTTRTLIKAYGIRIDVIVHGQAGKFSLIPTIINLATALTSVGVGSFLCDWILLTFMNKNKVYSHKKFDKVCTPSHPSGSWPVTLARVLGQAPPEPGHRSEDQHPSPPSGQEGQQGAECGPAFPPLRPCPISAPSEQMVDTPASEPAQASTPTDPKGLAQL
Assay details: Intracellular calcium measurement (FLIPR, Fluo-4) of antagonist activity at human P2X2/3 receptors
Assay type: cell-based
Experimental parameters: human P2X2/3, FLIPR calcium assay, agonist α,β-Me-ATP; read-out: hP2X2/3 IC50
Assign classes using reported IC50 values and the ranges low group (below 300 nM), middle group (300 nM to below 700 nM), high group (700 nM or more), please.

Some entries whose results are on file:
Cc1cnc(-c2cc(OCC3CC(F)CN3C)cc(C(=O)N[C@H](C)c3ccc(C(F)(F)F)nc3)c2)s1 (stereo partly drawn)
high group
CCc1cnc(-c2cc(OCC3(F)CN(C)C3)cc(C(=O)N[C@H](C)c3ccc(C(F)(F)F)nc3)c2)s1
middle group
Cc1cnc(-c2cc(OC3CCOCC3)cc(C(=O)N[C@H](C)c3cnc(C(F)F)nc3)c2)s1
low group
Cc1cnc(-c2cc(OC[C@@H]3COCCO3)cc(C(=O)N[C@H](C)c3ccc(C(F)(F)F)nc3)c2)s1
high group
Cc1cnc(-c2cc(OC3COC3)cc(C(=O)NCc3ccc(C(F)(F)F)nn3)c2)s1
middle group
CCc1cnc(-c2cc(OC[C@H]3CN(C)CCO3)cc(C(=O)N[C@H](C)c3ccc(C(F)(F)F)nn3)c2)s1
high group
Cc1cnc(-c2cc(OC[C@@H]3CCCN3C)cc(C(=O)N[C@H](C)c3cnc(C(F)(F)F)nc3)c2)s1
high group
Cc1ncc([C@@H](C)NC(=O)c2cc(OCC3CCOCC3)cc(-c3ncc(C4CCC4)s3)c2)cn1
low group
CC(C)c1cnc(-c2cc(O[C@H]3CCOC3)cc(C(=O)N[C@H](C)c3cnc(C(F)(F)F)nc3)c2)s1
middle group
C[C@@H](NC(=O)c1cc(O[C@@H]2CCOC2)cc(-c2ncc(Cl)s2)c1)c1ccc(C(F)(F)F)nn1
middle group

Enquiry: Category of Cc1cnc(-c2cc(OCC3CNCCC3(F)F)cc(C(=O)N[C@H](C)c3cnc(C(F)(F)F)nc3)c2)s1 (stereo partly drawn) , please.
Return: low group

Enquiry: Category of "Cc1cnc(-c2cc(OC[C@@H]3CCCO3)cc(C(=O)N[C@H](C)c3ccc(C(F)(F)F)nn3)c2)s1" , please.
Return: middle group

Enquiry: Category of "Cc1cc(Oc2cc(C(=O)NCc3ccc(C)nn3)cc(-c3ncc(C)s3)c2)ccn1" , please.
Return: low group

---

Recorded measurements of IC50, one per entry
Tested system: human P2X2/3 receptor (Homo sapiens (Human), UniProt P56373+Q9UBL9)
Assay details: Intracellular calcium measurement (FLIPR, Fluo-4) of antagonist activity at human P2X2/3 receptors
Assay type: cell-based
Experimental parameters: human P2X2/3, FLIPR calcium assay, agonist α,β-Me-ATP; read-out: hP2X2/3 IC50
Write it as a number; the unit µM goes unstated.

Here is how some compounds turned out for IC50.
Cc1ccc([C@@H](C)NC(=O)c2cc(OC3CCOCC3)cc(-c3ncc(C)s3)c2)cn1 [Example 91]
0.133
CCN1CCO[C@@H](COc2cc(C(=O)N[C@H](C)c3cnc(C(F)(F)F)nc3)cc(-c3ncc(C)s3)c2)C1 [Example 390]
0.804
CC#CCOc1cc(C(=O)N[C@H](C)c2nnc(C)s2)cc(-c2ncc(C)s2)c1 [Example 41]
1.59

Continue with the next compound.
// Cc1cnc(-c2cc(OC[C@H]3COCC(=O)N3)cc(C(=O)N[C@H](C)c3cnc(C(F)(F)F)nc3)c2)s1 [Example 396] : IC50 value = 1.8
